A collection of compounds and their measured Ki
- Target Or System: P2Y purinoceptor 12 (Homo sapiens)
- Procedure Text: Binding affinity at human recombinant P2Y12 receptor expressed in CHO cells by radioligand binding assay
Hi! Could you send only the number? It should be in nM, unit omitted.

Solved cases (2 shown):
Smiles Str	Ki, nM
CCCCCOC(=O)N1CCN(C(=O)[C@H](CCC(=O)O)NC(=O)c2cc(N3CCC(C(=O)N(C)C)CC3)nc(-c3ccccc3)n2)CC1	2.5
CCCCCOC(=O)N1CCN(C(=O)[C@H](CCC(=O)O)NC(=O)c2nc(-c3ccccc3)cc(N3CCC(CCN)CC3)n2)CC1	3

query: Can you look up the measured Ki of CCCCCOC(=O)N1CCN(C(=O)[C@H](CCC(=O)O)NC(=O)c2cc(N3CCN(C(N)=O)CC3)nc(-c3ccccc3)n2)CC1 for me?
result: 1.2

query: Can you look up the measured Ki of CCCCCOC(=O)N1CCN(C(=O)[C@H](CCC(=O)O)NC(=O)c2nc(-c3ccccc3)cc(N3CCC(OC)CC3)n2)CC1 for me?
result: 7.4

query: Can you look up the measured Ki of CCCCCOC(=O)N1CCN(C(=O)[C@H](CCC(=O)O)NC(=O)c2nc(-c3ccccc3)cc(N3CCC(COCCOC)CC3)n2)CC1 for me?
result: 8.1

query: Can you look up the measured Ki of CCCCCOC(=O)N1CCN(C(=O)[C@H](CCC(=O)O)NC(=O)c2cc(N3CCC(OC)CC3)nc(-c3ccccc3)n2)CC1 for me?
result: 5

query: Can you look up the measured Ki of CCCCCOC(=O)N1CCN(C(=O)[C@H](CCC(=O)O)NC(=O)c2cc(N3CCC(C(N)=O)CC3)nc(-c3ccccc3)n2)CC1 for me?
result: 2

* * *

- Target Or System: P2Y purinoceptor 12 (Homo sapiens, UniProt Q9H244)
- Sequence (Q9H244 whole entry): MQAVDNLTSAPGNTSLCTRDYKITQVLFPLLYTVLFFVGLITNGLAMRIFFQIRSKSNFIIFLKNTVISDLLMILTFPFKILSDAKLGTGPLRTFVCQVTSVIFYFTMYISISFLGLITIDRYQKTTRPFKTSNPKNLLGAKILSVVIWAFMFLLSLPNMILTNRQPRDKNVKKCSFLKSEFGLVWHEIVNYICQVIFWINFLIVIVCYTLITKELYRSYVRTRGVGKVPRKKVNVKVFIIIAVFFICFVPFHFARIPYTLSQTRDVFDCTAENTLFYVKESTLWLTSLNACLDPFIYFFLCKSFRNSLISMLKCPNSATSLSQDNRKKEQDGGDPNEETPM
- Procedure Text: Binding affinity at human recombinant P2Y12 receptor expressed in CHO cells by radioligand binding assay
Observed Property: Ki (nM)
Hi! Could you send only the number? It should be in nM, unit omitted.

Solved cases (4 shown):
Smiles Str	Unit	Reported Measurement
CCCCCOC(=O)N1CCN(C(=O)[C@H](CCC(=O)O)NC(=O)c2cc(N3CC(OCC)C3)nc(-c3ccccc3)n2)CC1	nM	1.2
CCCCCOC(=O)N1CCN(C(=O)[C@H](CCC(=O)O)NC(=O)c2nc(OCC3CCNCC3)cc(-c3ccccc3)n2)CC1	nM	31
CCCCCOC(=O)N1CCN(C(=O)[C@H](CCC(=O)O)NC(=O)c2cc(N3CCN(C(=O)N(C)C)CC3)nc(-c3ccccc3)n2)CC1	nM	2.9
CCCCCOC(=O)N1CCN(C(=O)[C@H](CCC(=O)O)NC(=O)c2cc(N3CCC(CCN4CCCC4)CC3)nc(-c3ccccc3)n2)CC1	nM	2.1

query: Can you look up the measured Ki of CCCCCOC(=O)N1CCN(C(=O)[C@H](CCC(=O)O)NC(=O)c2cc(OCCN(CC)CC)nc(-c3ccccc3)n2)CC1 for me?
result: 27

* * *

- Target Or System: P2Y purinoceptor 12 (Homo sapiens, UniProt Q9H244)
- Procedure Text: Ratio of compound IC50 to thienopyrimidine IC50 for P2Y12 receptor in human platelet rich plasma assessed as inhibition of ADP-induced platelet aggregation by light transmission aggregometry
Observed Property: Ratio IC50
Please reply with the value in numeric form only.

query: Can you look up the measured Ratio IC50 of CCCCCOC(=O)N1CCN(C(=O)[C@H](CCC(=O)O)NC(=O)c2nc(-c3ccccc3)cc(N3CCC(C(=O)N4CCCC4)CC3)n2)CC1 for me?
result: 0.5

query: Can you look up the measured Ratio IC50 of CCCCCOC(=O)N1CCN(C(=O)[C@H](CCC(=O)O)NC(=O)c2cc(N3CCN(CC(=O)N(C)C)CC3)nc(-c3ccccc3)n2)CC1 for me?
result: 0.1

query: Can you look up the measured Ratio IC50 of CCCCCOC(=O)N1CCN(C(=O)[C@H](CCC(=O)O)NC(=O)c2cc(N3CCC(CN(CC)CC)CC3)nc(-c3ccccc3)n2)CC1 for me?
result: 0.2

query: Can you look up the measured Ratio IC50 of CCCCCOC(=O)N1CCN(C(=O)[C@H](CCC(=O)O)NC(=O)c2nc(OCCCN3CCOCC3)cc(-c3ccccc3)n2)CC1 for me?
result: 1.2

query: Can you look up the measured Ratio IC50 of CCCCOC(=O)N1CCN(C(=O)[C@H](CCC(=O)O)NC(=O)c2cc(OCC3CCN(C)CC3)nc(-c3ccccc3)n2)CC1 for me?
result: 0.9

query: Can you look up the measured Ratio IC50 of CCCCCOC(=O)N1CCN(C(=O)[C@H](CCC(=O)O)NC(=O)c2cc(N3CCC(N4CCCC4)CC3)nc(-c3ccccc3)n2)CC1 for me?
result: 0.1

query: Can you look up the measured Ratio IC50 of CCCCCOC(=O)N1CCN(C(=O)[C@H](CCC(=O)O)NC(=O)c2nc(-c3ccccc3)cc(N3CCC(CN)CC3)n2)CC1 for me?
result: 0.2

* * *

- Target Or System: UniProt Q9H244
- Procedure Text: Ratio of compound IC50 to thienopyrimidine IC50 for P2Y12 receptor in human platelet rich plasma assessed as inhibition of ADP-induced platelet aggregation by light transmission aggregometry
Observed Property: Ratio IC50

Solved cases (5 shown):
Compound	Reported Measurement
CCCCCOC(=O)N1CCN(C(=O)[C@H](CCC(=O)O)NC(=O)c2cc(N3CCN(C(N)=O)CC3)nc(-c3ccccc3)n2)CC1	0.2
CCCCCOC(=O)N1CCN(C(=O)[C@H](CCC(=O)O)NC(=O)c2cc(N3CC(O)C3)nc(-c3ccccc3)n2)CC1	0.8
CCCCCOC(=O)N1CCN(C(=O)[C@H](CCC(=O)O)NC(=O)c2cc(N3CCN(C(C)=O)CC3)nc(-c3ccccc3)n2)CC1	0.3
CCCCCOC(=O)N1CCN(C(=O)[C@H](CCC(=O)O)NC(=O)c2cc(N3CCC(CC(=O)NCC)CC3)nc(-c3ccccc3)n2)CC1	0.3
CCCCCOC(=O)N1CCN(C(=O)[C@H](CCC(=O)O)NC(=O)c2cc(N3CCC(OC)CC3)nc(-c3ccccc3)n2)CC1	0.5

query: Can you look up the measured Ratio IC50 of CCCCCOC(=O)N1CCN(C(=O)[C@H](CCC(=O)O)NC(=O)c2cc(N3CCC(C(N)=O)CC3)nc(-c3ccccc3)n2)CC1 for me?
result: 0.1

query: Can you look up the measured Ratio IC50 of CCCCCOC(=O)N1CCN(C(=O)[C@H](CCC(=O)O)NC(=O)c2nc(-c3ccccc3)cc(N3CCN(C(N)=O)CC3)n2)CC1 for me?
result: 1

query: Can you look up the measured Ratio IC50 of CCCCCOC(=O)N1CCN(C(=O)[C@H](CCC(=O)O)NC(=O)c2cc(N3CCC(CNC)CC3)nc(-c3ccccc3)n2)CC1 for me?
result: 0.1

query: Can you look up the measured Ratio IC50 of CCCCCOC(=O)N1CCN(C(=O)[C@H](CCC(=O)O)NC(=O)c2cc(OCCN(CC)CC)nc(-c3ccccc3)n2)CC1 for me?
result: 2.4

query: Can you look up the measured Ratio IC50 of CCCCCOC(=O)N1CCN(C(=O)[C@H](CCC(=O)O)NC(=O)c2cc(N3CCC(C(=O)N(C)C)CC3)nc(-c3ccccc3)n2)CC1 for me?
result: 0.1

query: Can you look up the measured Ratio IC50 of CCCCOC(=O)N1CCN(C(=O)[C@H](CCC(=O)O)NC(=O)c2cc(N3CCC(OC)CC3)nc(-c3ccccc3)n2)CC1 for me?
result: 0.4

query: Can you look up the measured Ratio IC50 of CCCCCOC(=O)N1CCN(C(=O)[C@H](CCC(=O)O)NC(=O)c2cc(NCC3CCNC3)nc(-c3ccccc3)n2)CC1 (some centres not stated) for me?
result: 0.5

query: Can you look up the measured Ratio IC50 of CCCCCOC(=O)N1CCN(C(=O)[C@H](CCC(=O)O)NC(=O)c2cc(N3CCC(CCOC)CC3)nc(-c3ccccc3)n2)CC1 for me?
result: 1.3

query: Can you look up the measured Ratio IC50 of CCCCCOC(=O)N1CCN(C(=O)[C@H](CCC(=O)O)NC(=O)c2cc(N3CCC(OCCO)CC3)nc(-c3ccccc3)n2)CC1 for me?
result: 0.4

query: Can you look up the measured Ratio IC50 of CCCCCOC(=O)N1CCN(C(=O)[C@H](CCC(=O)O)NC(=O)c2cc(N3CCC(CC(=O)NC)CC3)nc(-c3ccccc3)n2)CC1 for me?
result: 0.2

query: Can you look up the measured Ratio IC50 of CCCCCOC(=O)N1CCN(C(=O)[C@H](CCC(=O)O)NC(=O)c2cc(N3CCC(CN)CC3)nc(-c3ccccc3)n2)CC1 for me?
result: 0.1

query: Can you look up the measured Ratio IC50 of CCCCOC(=O)N1CCN(C(=O)[C@H](CCC(=O)O)NC(=O)c2cc(OCC3CCNCC3)nc(-c3ccccc3)n2)CC1 for me?
result: 0.3
